Give shrunken log2 fold change for every item shown.
- System: Escherichia coli TOP10
- procedure_text: shrunken log2 fold change of peptide-encoding DNA abundance (4.5 h post-induction vs induction); higher = less antimicrobial activity (less host growth inhibition)
- recorded_conditions: time post-induction: 4.5 h; library: site-saturation at positions 5, 18, 19, 20
One number for each entry.

Please review the entries below; each comes with its answer.
- ordered_residues: "RRIRPRPPRLPRPRPRPNKLPRP"
  readout_type: "shrunken log2 fold change"
  assay_result: 0.448
- ordered_residues: "RRIRPRPPRLPRPRPRPTNNPRP"
  readout_type: "shrunken log2 fold change"
  assay_result: -0.329
- ordered_residues: "RRIRFRPPRLPRPRPRPFKGPRP"
  readout_type: "shrunken log2 fold change"
  assay_result: -0.23
- ordered_residues: "RRIRGRPPRLPRPRPRPQMAPRP"
  readout_type: "shrunken log2 fold change"
  assay_result: 0.923

Each sequence below has a recorded value; state its shrunken log2 fold change.
1. RRIRPRPPRLPRPRPRPECAPRP
2. RRIRTRPPRLPRPRPRPWILPRP
3. RRIRKRPPRLPRPRPRPNMNPRP
4. RRIRARPPRLPRPRPRPSGVPRP
5. RRIRCRPPRLPRPRPRPLSVPRP
6. RRIRHRPPRLPRPRPRPVHFPRP

Completion:
1: 0.698; 2: -0.23; 3: 0.394; 4: -0.136; 5: -0.481; 6: -0.011

Please give shrunken log2 fold change for each item listed below.
1. RRIRLRPPRLPRPRPRPIPEPRP
2. RRIRGRPPRLPRPRPRPMNYPRP
3. RRIRKRPPRLPRPRPRPNRNPRP
4. RRIRVRPPRLPRPRPRPKLAPRP
5. RRIRPRPPRLPRPRPRPSCGPRP

Completion:
[0.0268, 0.00834, -0.234, 0.274, 0.137]

* * *

- System: Escherichia coli TOP10
- procedure_text: shrunken log2 fold change of peptide-encoding DNA abundance (4.5 h post-induction vs induction); higher = less antimicrobial activity (less host growth inhibition)
- recorded_conditions: time post-induction: 4.5 h; library: site-saturation at positions 5, 18, 19, 20
Give measured shrunken log2 fold change for each item. Keep answers brief.
One number for each entry.

As a guide, the following entries are already answered.
- ordered_residues: "RRIRDRPPRLPRPRPRPLNMPRP"
  assay_result: 0.111
- ordered_residues: "RRIRWRPPRLPRPRPRPEWFPRP"
  assay_result: 0.395

// each listed sequence needs a value for shrunken log2 fold change
1. RRIRDRPPRLPRPRPRPEKNPRP
2. RRIRTRPPRLPRPRPRPMVFPRP
3. RRIRIRPPRLPRPRPRPNNFPRP
4. RRIRKRPPRLPRPRPRPTPPPRP
5. RRIRRRPPRLPRPRPRPMRLPRP
6. RRIRWRPPRLPRPRPRPVMKPRP

Completion:
[0.489, 0.0283, -0.388, 1.25, 0.667, 0.12]

* * *

- System: Escherichia coli TOP10;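 note: peptides expressed intracellularly from a pBAD plasmid library in pooled LB shake-flask culture, induced with 0.3% L-arabinose, DNA abundance read by NGS, three biological replicates, DESeq2 with apeglm shrinkage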
- procedure_text: shrunken log2 fold change of peptide-encoding DNA abundance (4.5 h post-induction vs induction); higher = less antimicrobial activity (less host growth inhibition)
- recorded_conditions: time post-induction: 4.5 h; library: site-saturation at positions 5, 18, 19, 20
readout_type: shrunken log2 fold change
One number for each entry.

Worked set:
- ordered_residues: "RRIRVRPPRLPRPRPRPSGLPRP"
  shrunken log2 fold change: 0.0687
- ordered_residues: "RRIRFRPPRLPRPRPRPRNIPRP"
  shrunken log2 fold change: -0.313

Working through the 3 sequences below one at a time, give shrunken log2 fold change for each.
1. RRIRRRPPRLPRPRPRPLKWPRP
2. RRIRTRPPRLPRPRPRPKIAPRP
3. RRIRYRPPRLPRPRPRPLISPRP

Completion:
1. -0.107
2. -0.0425
3. -0.596

Provide the reported shrunken log2 fold change of each entry below, same order.
1. RRIRVRPPRLPRPRPRPATAPRP
2. RRIRYRPPRLPRPRPRPPPWPRP
3. RRIRSRPPRLPRPRPRPFPVPRP
4. RRIRTRPPRLPRPRPRPGEHPRP
5. RRIRMRPPRLPRPRPRPMEHPRP

Completion:
0.18
0.358
-0.516
-0.187
0.0124
